Here, each record is paired with measured change of melting temperature, mutant - wild type (higher = more stable) data.
B1: Aryl-hydrocarbon-interacting protein-like 1, Q9NZN9 (parent)
chain: MDAALLLNVEGVKKTILHGGTGELPNFITGSRVIFHFRTMKCDEERTVIDDSRQVGQPMHIIIGNMFKLEVWEILLTSMRVHEVAEFWCDTIHTGVYPILSRSLRQMAQGKDPTEWHVHTCGLANMFAYHTLGYEDLDELQKEPQPLVFVIELLQVDAPSDYQRETWNLSNHEKMKAVPVLHGEGNRLFKLGRYEEASSKYQEAIICLRNLQTKEKPWEVQWLKLEKMINTLILNYCQCLLKKEEYYEVLEHTSDILRHHPGIVKAYYVRARAHAEVWNEAEAKADLQKVLELEPSMQKAVRRELRLLENRMAEKQEEERLRCRNMLSQGATQPPAEPPTEPPAQSSTEPPAEPPTAPSAELSAGPPAEPATEPPPSPGHSLQH

# Variants of: B1
# condition: Homo sapiens; pH 7.9; Thermal; CD; sodium Phosphate 5 mM; transition: 2; whole UniProt chain shown
Provide a numeric answer, followed by its unit.

INSERT INTO results (mutation_descriptor, observed) VALUES
  ('G262S', '-4 °C'),
  ('T114I', '-9.3 °C'),
  ('I206N', '-2.7 °C');

Now for the variant whose change of melting temperature, mutant - wild type (higher = more stable) we want.
Field request: change of melting temperature, mutant - wild type (higher = more stable) | item: `C239R`
2.6 °C
